Protocol notes: Dose response of Hst1 and PIC in the presence of CWE
Assay type: in vitro ADME, human
Condition set: human, chronic wound extracts (CWE), with protease inhibitor cocktail (PIC), PIC:CWE 1:140 v/v, Hst1 1 mg/ml; PIC:CWE 1:140 v/v; CWE 1 mg/ml; 37°C, 24 h; CZE, 0 h = 100%; experiment 2 of 3; read-out: Intact Hst1, CWE + PIC 1:140 24h
Where no end group is shown, it is not given here.
Property measured: remaining at 24 h, 1 mg/ml (%)

[
  {
    "Residue codes": "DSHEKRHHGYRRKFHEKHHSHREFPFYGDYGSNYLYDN [Hst1]",
    "Reported measurement": 67
  }
]
